# assayNotes: chemical genetic growth profiling, strain panel (AID 1159580);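 further: tested at 20 µM; growth read once vehicle control cultures reached saturation at 30 °C; 1 = growth at the plate median or of vehicle wells; lower values mean less growth of the strain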
# testParameters: S. cerevisiae deletion strains, growth OD, locus YEL061C, strain CIN8 (second series), hits give low values
Hit rate of the full screen: of about 5,500 compounds, about 2,000 (36%) were called active. Roughly 18% stayed inconclusive and do not appear here. This is one part of the list.
assayMetric: normalized growth
No unit in the answer, please; the number alone is enough.

Query: What value of normalized growth has been recorded for this entry: "COc1cc(/C=C/C(=O)/C=C(O)/C=C/c2ccc(O)c(OC)c2)ccc1O"
Result: 0.243

---
Query: What value of normalized growth has been recorded for this entry: CC(=O)O[C@@H]1C[C@@]2(C)C(CC[C@@H]2C(C)=O)C2CCC3=CC(=O)CC[C@]3(C)C21 (some centres not stated)
Result: 1.02

Query: What value of normalized growth has been recorded for this entry: "c1ccc(N=Nc2ccccc2)cc1"
Result: 0.976

Query: What value of normalized growth has been recorded for this entry: "COc1cc(O)c(C(=O)/C=C/c2ccc(OC)c(O)c2)c(OC)c1"
Result: 0.918

Query: What value of normalized growth has been recorded for this entry: CC(=O)NC1SCCC1=O (configuration not stated)
Result: 0.981

----------
# assayNotes: chemical genetic growth profiling, strain panel (AID 1159580)
# testParameters: S. cerevisiae deletion strains, growth OD, locus YMR205C, strain PFK2 (second series), hits give low values
The whole screen tested about 5,500 compounds, of which about 2,000 (36%) were called active. Inconclusive results (about 18%) are left out. This is one part of the list.
assayMetric: normalized growth
No unit in the answer, please; the number alone is enough.

Below are worked cases with known answers.
Query: What value of normalized growth has been recorded for this entry: CS(=NC(=O)c1cccc(Cl)c1)c1ccc(OC(=O)c2ccc(Cl)cc2)cc1 (stereo not given)
Result: 0.934

Query: What value of normalized growth has been recorded for this entry: "COc1ccc(CN2CSC(=S)N(Cc3ccc(OC)cc3)C2)cc1"
Result: 0.945

---
Query: What value of normalized growth has been recorded for this entry: "Cc1nnsc1C(=O)NNc1ccc(F)cc1F"
Result: 0.906

Query: What value of normalized growth has been recorded for this entry: "O=C(N/C=C/c1ccsc1)Nc1cc(C(F)(F)F)cc(C(F)(F)F)c1"
Result: 0.672

----------
# assayNotes: chemical genetic growth profiling, strain panel (AID 1159580)
# testParameters: S. cerevisiae deletion strains, growth OD, locus YOR001W, strain rrp6, hits give low values
Out of some 5,500 compounds screened, about 2,000 (36%) were called active. Another 18% or so got no clear call; they are omitted. Some of the results follow.
API: label(entry) gives 1 (yes) if the entry's normalized growth is strictly smaller than 1; on equality or larger values it gives 0 (no).

Some entries whose results are on file:
Query: Quick check: does C[C@H]1CC2C([C@@H](O)C[C@@]3(C)C2CC[C@]3(O)C(=O)CO)[C@@]2(C)C=CC(=O)C=C12 (some centres undefined) have normalized growth under 1?
Result: 1 (yes)

Query: Quick check: does "CCC(=O)O[C@H]1[C@H](O[C@@H]2[C@@H](C)[C@H](O[C@H]3C[C@@](C)(OC)[C@@H](O)[C@H](C)O3)[C@@H](C)C(=O)O[C@H](CC)[C@@](C)(O)[C@H](O)[C@@H](C)C(=O)[C@H](C)C[C@@]2(C)O)O[C@H](C)C[C@@H]1N(C)C" have normalized growth under 1?
Result: 1 (yes)

Could you now consider this next compound?
Query: Quick check: does CC1=C(CC(=O)O)c2cc(F)ccc2/C1=C\c1ccc(S(C)=O)cc1 (centres undefined) have normalized growth under 1?
Result: 0 (no)

----------
normalized growth reference
# assayNotes: chemical genetic growth profiling, strain panel (AID 1159580);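 further: tested at 20 µM; growth read once vehicle control cultures reached saturation at 30 °C; 1 = growth at the plate median or of vehicle wells; lower values mean less growth of the strain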
# testParameters: S. cerevisiae deletion strains, growth OD, locus YLR058C, strain SHM2 (second series), hits give low values
Among all 5,500 compounds or so, about 2,000 (36%) were called active. Inconclusive results (about 18%) are left out. The list shows a part of the results.
No unit in the answer, please; the number alone is enough.

Below are worked cases with known answers.
Query: What value of normalized growth has been recorded for this entry: "O=C(Oc1ccc(C(F)(F)F)cc1[N+](=O)[O-])c1c(F)cccc1F"
Result: 0.15

Query: What value of normalized growth has been recorded for this entry: "CCOC(=O)CSC(=S)NCc1ccc(C)cc1"
Result: 0.909

Query: What value of normalized growth has been recorded for this entry: "Cc1ccc(C)c(NC(=S)N(CCc2ccccc2)CCc2ccccn2)c1"
Result: 0.98

---
Query: What value of normalized growth has been recorded for this entry: "CC1=C(OS(=O)(=O)c2cc(C)c(Cl)cc2Cl)C(=O)CC1"
Result: 0.968

Query: What value of normalized growth has been recorded for this entry: "COc1ccccc1N1CCN(S(=O)(=O)c2cc(C)c(Cl)cc2C)CC1"
Result: 0.988

Query: What value of normalized growth has been recorded for this entry: "Ic1ccc(I)s1"
Result: 0.999

Query: What value of normalized growth has been recorded for this entry: "N#CCOc1ccc(Cl)cc1Cl"
Result: 0.954

Query: What value of normalized growth has been recorded for this entry: "COC(=O)c1sccc1OC(=O)c1c(F)cccc1F"
Result: 0.961

----------
# assayNotes: chemical genetic growth profiling, strain panel (AID 1159580);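 further: tested at 20 µM; growth read once vehicle control cultures reached saturation at 30 °C; 1 = growth at the plate median or of vehicle wells; lower values mean less growth of the strain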
# testParameters: S. cerevisiae deletion strains, growth OD, locus YPL031C, strain PHO85, hits give low values
Out of some 5,500 compounds screened, about 2,000 (36%) were called active. Another 18% or so got no clear call; they are omitted. Some of the results follow.
API: label(entry) gives 1.0 if the entry's normalized growth is strictly smaller than 0.9; on equality or larger values it gives 0.0.

Some entries whose results are on file:
Query: Quick check: does CS(=NC(=O)c1cccc(Cl)c1)c1ccc(OC(=O)c2ccc(Cl)cc2)cc1 (configuration not stated) have normalized growth under 0.9?
Result: 0.0

Query: Quick check: does "O=C(NNc1ccccc1F)c1ccno1" have normalized growth under 0.9?
Result: 0.0

Query: Quick check: does "Cc1nnsc1C(=O)Nc1cc(C(F)(F)F)cc(C(F)(F)F)c1" have normalized growth under 0.9?
Result: 0.0

Query: Quick check: does "Cc1nnsc1C(=O)NNc1ccc(F)cc1F" have normalized growth under 0.9?
Result: 1.0

Query: Quick check: does "Cc1cc(NNC(=O)c2ccccc2Cl)nc2c1c(C)nn2C" have normalized growth under 0.9?
Result: 0.0

Could you now consider this next compound?
Query: Quick check: does "Cc1nnsc1C(=O)NNc1c(Cl)cccc1Cl" have normalized growth under 0.9?
Result: 0.0

----------
normalized growth reference
# assayNotes: chemical genetic growth profiling, strain panel (AID 1159580);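 further: tested at 20 µM; growth read once vehicle control cultures reached saturation at 30 °C; 1 = growth at the plate median or of vehicle wells; lower values mean less growth of the strain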
# testParameters: S. cerevisiae deletion strains, growth OD, locus YOR270C, strain vph1, hits give low values
Among all 5,500 compounds or so, about 2,000 (36%) were called active. Inconclusive results (about 18%) are left out. This is one part of the list.
No unit in the answer, please; the number alone is enough.

Query: What value of normalized growth has been recorded for this entry: "COc1ccc2c3c1O[C@H]1C[C@@H](O)C=C[C@@]31CCN(C)C2"
Result: 0.965

Query: What value of normalized growth has been recorded for this entry: "COc1ccc2cc([C@H](C)C(=O)O)ccc2c1"
Result: 0.938

Query: What value of normalized growth has been recorded for this entry: C=C(C)C1CNC(C(=O)O)C1CC(=O)O (stereo not drawn)
Result: 1.02

Query: What value of normalized growth has been recorded for this entry: "CN(C)CC/C=C1\c2ccccc2Sc2ccc(Cl)cc21"
Result: 0.41

Query: What value of normalized growth has been recorded for this entry: "COc1ccc2cc([C@H](C)CO)ccc2c1"
Result: 0.997

Query: What value of normalized growth has been recorded for this entry: "NC(=O)c1ccc[n+]([C@@H]2O[C@H](COP(=O)([O-])OP(=O)(O)OC[C@H]3O[C@@H](n4cnc5c(N)ncnc54)[C@H](O)[C@@H]3O)[C@@H](O)[C@H]2O)c1"
Result: 1.14

Query: What value of normalized growth has been recorded for this entry: "c1ccc(N=Nc2ccccc2)cc1"
Result: 1.11

Query: What value of normalized growth has been recorded for this entry: "COc1ccc2c(C)cc(=O)oc2c1"
Result: 0.803

Query: What value of normalized growth has been recorded for this entry: "CCCCNc1cc(C(=O)O)cc(S(N)(=O)=O)c1Oc1ccccc1"
Result: 1.05

Query: What value of normalized growth has been recorded for this entry: COc1ccc(OC)c(C(O)C(C)N)c1 (stereo not drawn)
Result: 1.01

Query: What value of normalized growth has been recorded for this entry: CCOC(=O)C(=O)C1(C(=O)OCC)Oc2cc(OC)cc(OC)c2C(=O)C1c1ccccc1 (stereo not drawn)
Result: 0.878

Query: What value of normalized growth has been recorded for this entry: N=c1ccn2c(n1)O[C@@H]1C2O[C@H](CO)[C@H]1O (stereo partly drawn)
Result: 0.983

Query: What value of normalized growth has been recorded for this entry: "COP(=O)(OC)OC=C(Cl)Cl"
Result: 0.976

Query: What value of normalized growth has been recorded for this entry: CC(=O)NC1SCCC1=O (stereo not drawn)
Result: 0.973

Query: What value of normalized growth has been recorded for this entry: "NCCSSCCN"
Result: 1.02

Query: What value of normalized growth has been recorded for this entry: "CC(C)(O)[C@@H]1[C@H]2OC(=O)[C@@H]1[C@]1(O)C[C@H]3O[C@]34C(=O)O[C@H]2[C@]14C"
Result: 1.02

Query: What value of normalized growth has been recorded for this entry: "COC1=CC(=O)C[C@@H](C)[C@]12Oc1c(Cl)c(OC)cc(OC)c1C2=O"
Result: 0.952

Query: What value of normalized growth has been recorded for this entry: "COc1ccc2c(c1)OCc1c-2oc2cc(OC)ccc12"
Result: 0.476
